These entries and their values trace back to patent US20250011363A1.

# assay-target: acetylcholine receptor
# method-description: SPR, receptor immobilized, peptide 10 uM
measured-property: log10 Binding affinity (RU) (log10 of the value in RU)
Please note: log10 values; quantity Binding affinity (RU); unit RU.

Below: 2 binders and their reported log10 Binding affinity (RU).
RKRYQK [6mer-1-178]
2.14
KKDHK [5mer-778]
1.38

Entry RTPNRR [6mer-2-868] , log10 Binding affinity (RU) reported as 1.48
